Measured values drawn from patent US20180086841A1 for this set.

Assayed System: T1, His9G-tagged cynomolgus CD27 recombinant protein (cynomolgus, limits assumed)
T1 construct: In-house, transient transfection of HEK293 cells; also called Cyno CD27/His
T1 chain: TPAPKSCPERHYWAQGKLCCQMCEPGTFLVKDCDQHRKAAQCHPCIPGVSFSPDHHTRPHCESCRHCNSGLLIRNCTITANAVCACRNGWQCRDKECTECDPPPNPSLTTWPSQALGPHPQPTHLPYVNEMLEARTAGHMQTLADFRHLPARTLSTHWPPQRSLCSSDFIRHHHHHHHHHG
Assay Remarks: SPR Biacore 4000, antibody captured on anti-human Fc, His9G-tagged CD27 injected, 1:1 fit;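 also: Double-referenced SPR (blank anti-Fc surface and buffer injection subtracted), KD derived from association and dissociation rate constants, with human and cynomolgus CD27 as analytes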
Measured Metric: pKd
In textbook form, pKd equals minus log to base ten of the concentration in mol/L.

Binder: hCD27.131A VH8VL8 huIgG1 (antibody, V domains shown) VH: EIQLVQSGAEVKKPGASVKVSCKASGYTFTNYGMNWVKQAPGQGLKWMGWINTNTGEPTYAEEFKGRFTFTLDTSISTAYMELSSLRNEDTAVYYCAREGDAMDYWGQGTTVTVSS VL: EIVLTQSPATLSASPGERVTLSCSASSSVSYMHWYQQKPGQAPKRWIYDTSKLASGVPARFSGSGSGTDYSLTISSMEPEDFAVYYCQQWNSYPFTFGQGTKLEIK
Measured Metric: pKd
Result Value: 7.49

Please examine the following record next.
Looking up hCD27.131A VH7VL7 huIgG4 (antibody, V domains shown) VH: EIQLVQSGAEVKKPGASVKISCKASGYTFTNYGMNWVKQAPGQGLKWMGWINTNTGEPTYAEEFKGRFTFTLDTSATTAYLEISSLRSEDTAVYYCAREGDAMDYWGQGTTVTVSS VL: EIVLTQSPATLSLSPGERATLSCSASSSVSYMHWYQQKPGQAPKRWIYDTSKLASGVPARFSGSGSGTSYSLTISSLEPEDFATYYCQQWNSYPFTFGQGTKLEIK , I see its pKd listed as 7.44
